# System Name: T1, PUF4 RNA-binding domain (Saccharomyces cerevisiae, UniProt P25339 537-888)
# T1 sequence: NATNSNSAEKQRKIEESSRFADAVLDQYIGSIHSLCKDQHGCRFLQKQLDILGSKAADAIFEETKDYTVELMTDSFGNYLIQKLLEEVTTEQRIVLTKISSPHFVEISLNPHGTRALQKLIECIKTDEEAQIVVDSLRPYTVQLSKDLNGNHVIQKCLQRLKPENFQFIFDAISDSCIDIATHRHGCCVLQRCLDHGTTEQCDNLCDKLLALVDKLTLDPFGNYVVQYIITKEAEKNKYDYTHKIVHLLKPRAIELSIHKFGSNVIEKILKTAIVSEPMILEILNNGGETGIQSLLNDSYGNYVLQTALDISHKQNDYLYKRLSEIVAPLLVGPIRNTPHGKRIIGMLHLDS
# Procedure Summary: Mg; RNA-MaP; 20 mM Na-HEPES pH 7.4, 30 mM KOAc, 0.75 mM MgCl2, 0.1% Tween-20, 5% glycerol, 0.1 mg/mL BSA, 2 mM DTT; 25 C; 0.0125-409.6 nM protein
# Condition Label: tags: N-His6-TEV cleaved; C-SNAP kept, Cy3B-labelled; label: tethered on chip by stalled RNA polymerase
Attribute: Kd
Assay Metric: Kd

| Binder | Meas Value |
| --- | --- |
| UCUCUUUGUACUCUUUAUUAUCUCUU (ssRNA) [Ie_S1_P5E.1_K5.1_C5.1_H5.1_[+4CTCT]_A5.1_F5.1_T5.1] | 13.1 nM |
| UCUCUUGUCUAUAUAUAUAUCUCUU (ssRNA) [Id_i_S1_P3E.6_K3.2_C3.3_[T-3G]_[C-2T]_[T-1C]_H3.2_A3.1_F3.1_T3.2] | 102 nM |
| UCUCUUUCUGUAUAUUAUAUCUCUU (ssRNA) [Id_ii_S1_P4E.2_K4.1_C4.2_[C-2T]_[T-1C]_H4.1_A4.1_F4.1_T4.2_[G10T]_[T11A]] | 0.738 nM |
| Ic_S2_P5E.1_K5.1_C5.1_H5.1_A5.1_[T5C]_[A7T]_F5.1_[T8G]_[A10T]_T5.1 (ssRNA) RNA: UUUGAUUAAUAUGAUAUCGUUCUUUCUUGUACUUGUUUUCUUUCUCGAUAUCAUAUUAAUCUUU | 28.3 nM |
| UCUCUUUGUAUUGUUCUCUU (ssRNA) [Ic_S1_P3E.1_K3.1_C3.1_H3.1_A3.1_[A6T]_F3.1_[T7G]_[A8T]_T3.1] | 38.1 nM |
| UCUCUUUGUCUAAUAUCUCUU (ssRNA) [Ib_S1_P4E.1_K4.1_C4.1_H4.1_[A4C]_A4.1_[T7A]_F4.1_T4.1] | 83.9 nM |
| UCUCUUUGUACAUGCUCUCUU (ssRNA) [Ic_S1_P4E.1_K4.1_C4.1_H4.1_A4.1_[T5C]_F4.1_[T8G]_[A9C]_T4.1] | 28.6 nM |
| UCUCUUUGUAUUACCAUCUCUU (ssRNA) [Ib_S1_P5E.1_K5.1_C5.1_H5.1_A5.1_F5.1_[T8C]_[T9C]_T5.1] | 287 nM |
| UCUCUUGCUGUAUAUUACCUCUCUU (ssRNA) [Id_ii_S1_P4E.2_K4.1_C4.2_[C-2G]_[T-1C]_H4.1_A4.1_F4.1_T4.2_[G10C]_[T11C]] | 0.957 nM |
